Listed next: entries and their corresponding %Inh.
Test system: PRKD1;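 further: KINOMEscan kinase panel screen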
Conditions: concentration: 1 μM, replicates: in singlicate; n = 1
reported endpoint: %Inh (%)

molecule="Cc1ccc(NC(=O)c2ccc(Cl)cc2)cc1-c1ccc(C(=O)Nc2ccncc2)cc1 [GSK1398467]" reported_endpoint=%Inh reported_result=0
molecule="CC(=O)c1cccc(NC(=O)NC2CCN(c3ccnc(Nc4ccc(F)cc4)n3)C2)c1 (stereo not drawn) [GSK1379710]" reported_endpoint=%Inh reported_result=0
molecule="O=C1NC(=O)C(c2ccc(Cl)cc2)=C1Nc1ccc(O)cc1 [SB-340867]" reported_endpoint=%Inh reported_result=0
molecule=COc1ccc(-c2coc3ccc(-c4nnc(C)o4)cc23)cc1 reported_endpoint=%Inh reported_result=20
molecule="COc1cccc(CNC(=O)NC2CCN(c3ccnc(Nc4ccc(F)cc4)n3)C2)c1 (stereo not drawn) [GSK1379723]" reported_endpoint=%Inh reported_result=0
molecule="CNc1nc(-c2ccc3c(N)n[nH]c3c2)cc(N2C[C@@H](C(=O)NC3CCCCC3)OC[C@H]2C)n1 [GSK2375584]" reported_endpoint=%Inh reported_result=13
molecule="Cc1cnc(N)c(/C=C/c2cncc(C(=O)NCCc3ccc(Cl)cc3Cl)c2)c1.Cl [GSK190937]" reported_endpoint=%Inh reported_result=0
molecule="Cc1c(Cn2c3ccccc3n3c(=O)cc(N4CCOCC4)nc23)cccc1C(F)(F)F [GSK2306394]" reported_endpoint=%Inh reported_result=0
molecule=COc1ccc(CSc2nnc(-c3ccc4ncsc4c3)o2)cc1C(F)(F)F reported_endpoint=%Inh reported_result=17
molecule="CS(=O)(=O)CCNCc1nc(-c2ccc3ncnc(Nc4ccc(OCc5ccccc5)c(Cl)c4)c3c2)cs1.Cl [GW582764]" reported_endpoint=%Inh reported_result=2
molecule="Cc1ccc(NC(=O)Nc2ccccc2)cc1-c1ccc(C(=O)Nc2ccncc2)cc1 [GSK1398471]" reported_endpoint=%Inh reported_result=20
molecule="O=C(Nc1n[nH]c2nc(-c3cccs3)c(Br)cc12)C1CCCC1 [SB-743341]" reported_endpoint=%Inh reported_result=7
molecule="Cc1ccc(-c2nc(Nc3ccncc3)c3ccccc3n2)s1 [GSK189015]" reported_endpoint=%Inh reported_result=18
molecule="COc1ccc(Nc2nccc(NCCNC(=O)Nc3cc(C)ccc3C)n2)cc1 [GSK1379899]" reported_endpoint=%Inh reported_result=0
molecule="COC(=O)C(NC(=O)NC1CCN(c2ccnc(Nc3ccc(F)cc3)n2)C1)c1ccccc1 (stereo not drawn) [GSK1379712]" reported_endpoint=%Inh reported_result=0
molecule="FC(F)(F)c1ccccc1-c1cc(-c2c[nH]nc2-c2ccccn2)ccn1 [GW679396]" reported_endpoint=%Inh reported_result=12
molecule="CNc1nc(-c2ccc3c(N)n[nH]c3c2)cc(N2C[C@@H](C(=O)Nc3ccccc3)CC[C@H]2C)n1 [GSK2298859]" reported_endpoint=%Inh reported_result=0
molecule=COc1ccc(CSc2nnc(-c3ccc4c(c3)CCO4)o2)cc1 reported_endpoint=%Inh reported_result=0
molecule="COC(=O)C(Cc1ccccc1)NC(=O)NC1CCN(c2ccnc(Nc3ccc(F)cc3)n2)C1 (stereo not drawn) [GSK1379714]" reported_endpoint=%Inh reported_result=0
molecule="COc1ccc(Nc2nccc(N3CCC(NC(=O)C(C)c4ccc(Cl)cc4)C3)n2)cc1 (stereo not drawn) [GSK1379735]" reported_endpoint=%Inh reported_result=0
molecule="Nc1ncnc2occ(-c3ccc4c(c3)CCN4C(=O)Cc3cc(F)ccc3F)c12 [GSK2645446]" reported_endpoint=%Inh reported_result=0
molecule="COc1ccc(Nc2nccc(-c3ccc(NC(=O)c4cc5cc(F)ccc5[nH]4)cc3)n2)cc1 [GSK1229496]" reported_endpoint=%Inh reported_result=0
molecule="COc1ccc(Nc2nccc(N3CCC(NC(=O)c4cc5ccccc5s4)C3)n2)cc1 (stereo not drawn) [GSK1379738]" reported_endpoint=%Inh reported_result=0
molecule="COC(=O)c1cccc(NC(=O)NC2CCN(c3ccnc(Nc4ccc(F)cc4)n3)C2)c1 (stereo not drawn) [GSK1379725]" reported_endpoint=%Inh reported_result=1
molecule="Nc1cccc(-c2ccc3c(N)n[nH]c3c2)n1 [GSK2192730]" reported_endpoint=%Inh reported_result=0
molecule="COC(=O)c1cccc(NC(=O)NC2CCN(c3ccnc(Nc4ccc(OC)cc4)n3)C2)c1 (stereo not drawn) [GSK1379746]" reported_endpoint=%Inh reported_result=0
molecule="Cc1ccccc1Cn1ccn2c(=O)cc(N3CCOCC3)nc12 [GSK2269905]" reported_endpoint=%Inh reported_result=0
molecule="Cn1cncc1C(=O)NC1CCN(c2ccnc(Nc3ccc(F)cc3)n2)C1 (stereo not drawn) [GSK1379717]" reported_endpoint=%Inh reported_result=0
molecule="Cc1ccccc1-c1cc(-c2c[nH]nc2-c2ccccn2)ccn1 [GW680061]" reported_endpoint=%Inh reported_result=0
molecule="Cc1c(Cn2c(C)c(C)n3c(=O)cc(N4CCOCC4)nc23)cccc1C(F)(F)F [GSK2328680]" reported_endpoint=%Inh reported_result=0
